- TARGET_ENTITY: T1, VCAM (Panvera) (UniProt P19320 25-698, limits assumed)
- T1 sequence (looked up): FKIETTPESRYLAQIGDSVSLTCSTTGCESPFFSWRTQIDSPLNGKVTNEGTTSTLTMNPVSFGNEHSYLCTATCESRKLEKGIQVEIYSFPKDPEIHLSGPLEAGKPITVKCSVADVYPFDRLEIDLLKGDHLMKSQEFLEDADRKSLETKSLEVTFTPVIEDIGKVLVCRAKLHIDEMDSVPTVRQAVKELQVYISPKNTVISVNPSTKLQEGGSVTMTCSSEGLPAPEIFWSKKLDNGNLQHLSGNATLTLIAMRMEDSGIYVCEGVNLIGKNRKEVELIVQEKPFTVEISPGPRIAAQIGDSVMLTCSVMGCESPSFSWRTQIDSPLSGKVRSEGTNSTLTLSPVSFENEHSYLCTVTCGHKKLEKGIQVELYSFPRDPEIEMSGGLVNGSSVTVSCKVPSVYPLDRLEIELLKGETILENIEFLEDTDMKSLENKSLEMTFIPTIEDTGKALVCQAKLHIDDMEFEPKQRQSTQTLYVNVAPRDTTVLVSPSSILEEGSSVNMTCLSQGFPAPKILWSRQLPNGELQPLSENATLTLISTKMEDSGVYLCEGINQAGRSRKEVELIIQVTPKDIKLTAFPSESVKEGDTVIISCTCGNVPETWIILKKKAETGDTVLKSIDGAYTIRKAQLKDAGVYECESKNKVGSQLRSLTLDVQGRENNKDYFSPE
- ASSAY_PROTOCOL: cell-based or functional assay
REPORTED_ENDPOINT: inhibition of adhesion of α4β1+/α5β1+ Jurkat T-cells to coated VCAM

Data request, read-out inhibition of adhesion of α4β1+/α5β1+ Jurkat T-cells to coated VCAM, for anti-MAdCAM monoclonal antibody 7.16.6 (antibody, human IgG2, kappa, V domains shown) VH: QVQLVQSGAEVKKPGASVKVSCKASGYTFTSYGINWVRQAPGQGLEWMGWISVYSGNTNYAQKVQGRVTMTADTSTSTAYMDLRSLRSDDTAVYYCAREGSSSSGDYYYGMDVWGQGTTVTVSS VL: DIVMTQTPLSLSVTPGQPASISCKSSQSLLHTDGTTYLYWYLQKPGQPPQLLIYEVSNRFSGVPDRFSGSGSGTDFTLKISRVEAEDVGIYYCMQNIQLPWTFGQGTKVEIKR > 100 fold

Data request, read-out inhibition of adhesion of α4β1+/α5β1+ Jurkat T-cells to coated VCAM, for anti-MAdCAM monoclonal antibody 6.73.2 (antibody, human IgG4, kappa, V domains shown) VH: EVQLLESGGDLVQPGGSLRLSCAASGFTFRSYAMNWVRQAPGKGLEWVSVISGRGGTTYYADSVKGRFTISRDNSKNTLYLQMNSLRAEDAAVYYCAKIAVAGEGLYYYYGMDVWGQGTTVTVSS VL: DIQMTQSPSSLSASVGDRVTFTCRASQNITNYLNWYQQKPGKAPKLLIYAASSLPRGVPSRFRGSGSGTDFTLTISSLQPEDFATYYCQQSYSNPPECGFGQGTTLDIKR > 100 fold

Data request, read-out inhibition of adhesion of α4β1+/α5β1+ Jurkat T-cells to coated VCAM, for anti-MAdCAM monoclonal antibody 9.8.2 (antibody, human IgG4, kappa, V domains shown, fully human IgG4 kappa from hybridoma; signal peptide left out; kappa chain stained positive for glycosylation) VH: QVQLVESGGGVVQPGRSLRLSCAASGFTFSSYGMHWVRQAPGKGLEWVAVIWYDGSNEYYADSVKGRFTISRDNSKNTLYLQMNSLRAEDTAVYYCARGAYHFAYWGQGTLVTVSS VL: DIQMTQSPSSLSASVGDRVTITCQASQDISNYLNWYQQKPGKAPKLLIYDASNLETGVPSRFSGSGSGTDFTFTISSLQPEDIATYSCQHSDNLSITFGQGTRLEIKR > 100 fold
